Each entry below carries its reported IC50.
# TARGET UNDER TEST: recombinant human DPP9 (rhDPP9) (Homo sapiens, UniProt Q86TI2)
# Construct: purchased R&S system / R&D systems (both sic) 5419-SE
# Sequence (Q86TI2 whole entry): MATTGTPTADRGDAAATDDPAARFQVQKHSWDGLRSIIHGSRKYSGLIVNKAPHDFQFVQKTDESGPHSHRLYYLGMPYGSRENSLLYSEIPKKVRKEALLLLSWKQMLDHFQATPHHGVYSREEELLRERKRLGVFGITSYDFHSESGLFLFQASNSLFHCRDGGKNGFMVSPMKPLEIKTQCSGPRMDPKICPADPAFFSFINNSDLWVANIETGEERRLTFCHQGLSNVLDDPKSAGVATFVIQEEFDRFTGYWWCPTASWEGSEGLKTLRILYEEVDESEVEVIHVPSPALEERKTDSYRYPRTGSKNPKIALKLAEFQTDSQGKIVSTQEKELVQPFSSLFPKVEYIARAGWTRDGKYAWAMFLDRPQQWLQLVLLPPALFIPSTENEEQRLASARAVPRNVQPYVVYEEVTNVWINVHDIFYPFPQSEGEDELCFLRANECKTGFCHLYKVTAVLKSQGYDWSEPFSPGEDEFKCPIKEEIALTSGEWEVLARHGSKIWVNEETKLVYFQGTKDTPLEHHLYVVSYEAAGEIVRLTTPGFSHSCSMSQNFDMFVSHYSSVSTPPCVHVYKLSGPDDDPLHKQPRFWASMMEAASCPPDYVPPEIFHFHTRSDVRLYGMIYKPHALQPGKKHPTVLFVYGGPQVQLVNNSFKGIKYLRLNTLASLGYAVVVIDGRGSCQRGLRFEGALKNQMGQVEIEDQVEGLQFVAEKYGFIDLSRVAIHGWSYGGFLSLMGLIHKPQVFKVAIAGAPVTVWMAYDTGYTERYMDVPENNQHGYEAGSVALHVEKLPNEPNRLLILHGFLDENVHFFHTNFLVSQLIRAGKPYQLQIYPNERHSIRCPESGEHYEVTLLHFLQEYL
# TEST: DPP9 inhibition assay, 10 ng rhDPP9, Tris-HCl/BSA buffer
# Format: biochemical
# EXPERIMENTAL PARAMETERS: Table 3B

Worked set:
SMILES STR	IC50
N#C[C@@H]1CC(F)(F)CN1C(=O)CNC(=O)c1ccnc2ccc(/C=C/c3ccc(OC(F)(F)F)cc3)cc12	< 1000 nM
Cc1ccc(/C=C/c2ccc3nccc(C(=O)NCC(=O)N4CC(F)(F)C[C@H]4C#N)c3c2)nc1	< 1000 nM
N#C[C@@H]1CC(F)(F)CN1C(=O)CNC(=O)c1ccncc1C#Cc1ccc(Cl)cc1	> 10000 nM
N#C[C@@H]1CC(F)(F)CN1C(=O)CNC(=O)c1ccncc1Cc1ccccc1F	1000 to 10000 nM
COc1ccc(/C=C/c2ccc3nccc(C(=O)NCC(=O)N4CC(F)(F)C[C@H]4C#N)c3c2)cn1	< 1000 nM

The molecule identified as "C/C(=C\c1ccc2nccc(C(=O)NCC(=O)N3CC(F)(F)C[C@H]3C#N)c2c1)c1ccc(Cl)cc1" registered its IC50 at < 1000 nM

The molecule identified as "COc1ccc(/C(C)=C/c2cnccc2C(=O)NCC(=O)N2CC(F)(F)C[C@H]2C#N)cc1" registered its IC50 at 1000 to 10000 nM
